- experiment: PK parameters in mice after iv and po administration (LC-MS/MS of plasma)
- Assay type: in vivo
- conditions-used: mouse, plasma, iv, 3 mg/kg, i.v., read-out: AUCINF_obs
Give measured AUC(0-inf) for each item. Keep answers brief.

Completed entries (count: 2):
INSERT INTO results (compound, value_observed) VALUES
  ('CC(=O)N[C@H]1CC[C@H](NC(=O)Nc2cc(-c3cnn4c3CC(C)(C)C4)c(Cl)cn2)CC1', '491 ng·h/mL'),
  ('COCCN[C@H]1CC[C@H](NC(=O)Nc2cc(-c3cnn4c3CC(C)(C)C4)c(Cl)cn2)CC1', '729 ng·h/mL');

Consider now this further compound.
Dear colleague, I am looking for the recorded AUC(0-inf) of the following compound: CC(=O)N[C@@H]1CCC[C@H](C(=O)Nc2cc(-c3cnn4c3CC(C)(C)C4)c(Cl)cn2)C1 [AZD4573, reference compound]
419 ng·h/mL

###

- target-or-test-system: T1, Recombinant human CDK9/cyclin T1 (Homo sapiens, UniProt P50750)
- T1 construct: purchased Carna bioscience 04-110
- T1 sequence (P50750 whole entry): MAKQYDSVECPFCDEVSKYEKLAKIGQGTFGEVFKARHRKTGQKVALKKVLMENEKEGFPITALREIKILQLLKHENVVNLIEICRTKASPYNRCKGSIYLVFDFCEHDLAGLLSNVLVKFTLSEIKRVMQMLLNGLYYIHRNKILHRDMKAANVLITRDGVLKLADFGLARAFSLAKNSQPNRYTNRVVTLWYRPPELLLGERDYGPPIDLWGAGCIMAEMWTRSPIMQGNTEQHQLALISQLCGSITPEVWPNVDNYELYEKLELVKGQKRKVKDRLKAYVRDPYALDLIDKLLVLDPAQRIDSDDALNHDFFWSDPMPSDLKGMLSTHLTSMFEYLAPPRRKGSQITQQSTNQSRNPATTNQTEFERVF
- T1 sequence (O60563 whole entry partner): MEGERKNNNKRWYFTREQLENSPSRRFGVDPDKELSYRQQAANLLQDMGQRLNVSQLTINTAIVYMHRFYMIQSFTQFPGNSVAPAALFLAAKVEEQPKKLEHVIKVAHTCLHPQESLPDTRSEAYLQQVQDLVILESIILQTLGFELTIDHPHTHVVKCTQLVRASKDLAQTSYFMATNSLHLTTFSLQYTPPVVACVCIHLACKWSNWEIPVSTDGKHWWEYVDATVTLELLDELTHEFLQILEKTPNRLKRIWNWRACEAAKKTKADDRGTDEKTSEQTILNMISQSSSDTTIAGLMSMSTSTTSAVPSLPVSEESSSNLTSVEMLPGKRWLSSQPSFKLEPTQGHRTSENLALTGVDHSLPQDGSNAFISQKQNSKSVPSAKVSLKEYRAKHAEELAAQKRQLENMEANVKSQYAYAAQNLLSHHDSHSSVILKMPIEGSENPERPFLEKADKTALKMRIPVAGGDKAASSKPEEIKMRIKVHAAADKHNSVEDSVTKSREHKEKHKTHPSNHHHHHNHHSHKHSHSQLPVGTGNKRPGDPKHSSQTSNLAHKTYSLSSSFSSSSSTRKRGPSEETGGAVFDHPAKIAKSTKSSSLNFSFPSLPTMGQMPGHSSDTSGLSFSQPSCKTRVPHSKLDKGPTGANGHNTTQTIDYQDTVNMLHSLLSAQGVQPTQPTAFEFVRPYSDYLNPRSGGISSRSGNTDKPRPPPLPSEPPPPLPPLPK
- experiment: CDK9 enzyme inhibitory activity (ADP-Glo kinase assay)
- Assay type: biochemical
- conditions-used: CDK9 enzyme activity; compound 100 nM; average of two independent repeats; read-out: Inhibition rate at different concentrations (%) 100 nM
- From the text: […]
readout: inhibition at 0.1 µM (%)
Answers are plain numbers, in %.

Some compounds with known inhibition at 0.1 µM results, for comparison:
INSERT INTO measurements (compound, readout, value_observed) VALUES
  ('CC(=O)NC1CCC(NC(=O)Nc2cc(-c3cnn4c3CC3(CC3)C4)c(Cl)cn2)CC1 (stereo not drawn) [Example 81]', 'inhibition at 0.1 µM', 91.5),
  ('CN(C)C1CCC(NC(=O)Nc2cc(-c3cnn4c3CC(C)(C)C4)c(Cl)cn2)CC1 (stereo not drawn) [Example 89]', 'inhibition at 0.1 µM', 92.7),
  ('CC1(C)Cc2c(-c3cc(NC(=O)NC4CCC(NC(=O)C5CC5)CC4)ncc3Cl)cnn2C1 (stereo not drawn) [Example 49]', 'inhibition at 0.1 µM', 89.2),
  ('CC1(C)Cc2c(-c3cc(NC(=O)NC4CCC(N)CC4)ncc3Cl)cnn2C1 (stereo not drawn) [Example 44]', 'inhibition at 0.1 µM', 96),
  ('CC(=O)NC1CCC(NC(=O)Nc2cc(-c3cnn4c3CN(C)CC4)c(Cl)cn2)CC1 (stereo not drawn) [Example 83]', 'inhibition at 0.1 µM', 68.3);

Provide each entry's inhibition at 0.1 µM from the list below.
1. CC(=O)NC1CCC(NC(=O)Nc2cc(-n3cnc(C4CC4)c3)c(Cl)cn2)CC1 (stereo not drawn) [Example 87]
2. COc1cc(F)ccc1-c1ccnc(NC(=O)NC2CCC(NC(C)=O)CC2)n1 (stereo not drawn) [Example 41]
3. COCCNC1CCC(NC(=O)Nc2cc(-c3ccc(F)cc3OC)c(C)cn2)CC1 (stereo not drawn) [Example 29]
4. CC1(C)Cc2c(-c3ccnc(NC(=O)NC4CCC(N)CC4)c3)cnn2C1 (stereo not drawn) [Example 15]
5. CC1(C)Cc2c(-c3cc(NC(=O)NC4CCCC(N)C4)ncc3Cl)cnn2C1 (stereo not drawn) [Example 77]

1: 75.3; 2: 70.2; 3: 57; 4: 91.5; 5: 92

Each compound below has a recorded value; state its inhibition at 0.1 µM.
1. COc1cc(F)c(F)cc1-c1ccnc(NC(=O)NC2CCC(N)CC2)c1 (stereo not drawn) [Example 5]
2. CNC1CCC(NC(=O)Nc2cc(-c3cnn4c3CC(C)(C)C4)c(Cl)cn2)CC1 (stereo not drawn) [Example 88]
3. COCCNC1CCC(NC(=O)Nc2cc(-c3cnn(C)c3)ccn2)CC1 (stereo not drawn) [Example 14]
4. COCCNCCCNC(=O)Nc1cc(-c2ccc(F)cc2OC)ccn1 [Example 34]
5. NC1CCC(NC(=O)Nc2cc(-c3ccc(F)cc3Cl)ccn2)CC1 (stereo not drawn) [Example 10]
6. COc1cc(F)ccc1-c1ccnc(NC(=O)NC2CCC(NC(=O)OC(C)(C)C)CC2)c1 (stereo not drawn) [Example 1]

[88.2, 94.2, 72.3, 54, 94.6, 97.3]

Each compound below has a recorded value; state its inhibition at 0.1 µM.
1. CC(=O)NC1CC(NC(=O)Nc2cc(-c3cnn4c3CC(C)(C)C4)c(Cl)cn2)C1 (stereo not drawn) [Example 75]
2. COc1cc(F)ccc1-c1ccnc(NC(=O)N[C@H]2CC[C@H](N)CC2)c1 [Example 2]

[83, 88]

###

- target-or-test-system: CDK7/cyclin H (Homo sapiens, UniProt P50613)
- Sequence (P50613 whole entry, species assumed): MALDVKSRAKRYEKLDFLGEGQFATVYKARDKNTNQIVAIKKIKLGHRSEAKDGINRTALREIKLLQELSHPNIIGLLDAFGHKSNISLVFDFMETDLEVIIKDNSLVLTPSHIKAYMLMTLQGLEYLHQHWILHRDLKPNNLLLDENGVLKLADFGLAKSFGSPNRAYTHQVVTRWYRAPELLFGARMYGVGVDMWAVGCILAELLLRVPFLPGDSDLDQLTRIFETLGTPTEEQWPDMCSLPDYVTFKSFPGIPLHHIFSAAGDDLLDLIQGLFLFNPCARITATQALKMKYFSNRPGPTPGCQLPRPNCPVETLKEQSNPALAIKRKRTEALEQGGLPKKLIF
- Sequence (P51946 whole entry partner, species assumed): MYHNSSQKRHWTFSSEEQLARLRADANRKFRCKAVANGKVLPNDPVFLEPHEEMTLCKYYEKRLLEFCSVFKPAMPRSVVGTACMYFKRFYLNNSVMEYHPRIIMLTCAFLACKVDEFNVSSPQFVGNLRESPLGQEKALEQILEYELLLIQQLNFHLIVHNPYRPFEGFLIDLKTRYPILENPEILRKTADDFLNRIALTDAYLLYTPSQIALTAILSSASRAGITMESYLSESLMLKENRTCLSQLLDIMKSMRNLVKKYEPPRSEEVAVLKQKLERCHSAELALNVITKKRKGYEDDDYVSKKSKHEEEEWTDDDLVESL
- experiment: CDK7 enzyme activity inhibition
- Type: biochemical
- conditions-used: compound 10 nM; read-out: CDK7/Cyc H inhibition rate % 10 nM
readout: inhibition at 0.01 µM (%)
Answers are plain numbers, in %.

Hey, can you go through the list below and give me inhibition at 0.01 µM for every item?
1. CC(=O)N[C@H]1CC[C@@H](NC(=O)Nc2cc(-c3cnn4c3CC(C)(C)C4)c(Cl)cn2)CC1
2. COCCN[C@H]1CC[C@H](NC(=O)Nc2cc(-c3ccc(F)cc3OC)ccn2)CC1
3. CC(=O)N[C@H]1CC[C@H](NC(=O)Nc2cc(-c3cnn4c3CC(C)(C)C4)c(Cl)cn2)CC1
4. COCCN[C@H]1CC[C@H](NC(=O)Nc2cc(-c3cnn4c3CC(C)(C)C4)c(Cl)cn2)CC1
5. COc1cc(F)ccc1-c1ccnc(NC(=O)N[C@H]2CC[C@H](N)CC2)c1

[-4, -24.5, 15, 24, -6.6]

###

Record form. Attribute: inhibition at 0.1 µM. Fill in for each entry.
- target-or-test-system: T1, Recombinant human CDK9/cyclin T1 (Homo sapiens, UniProt P50750)
- T1 construct: purchased Carna bioscience 04-110
- experiment: CDK9 enzyme inhibitory activity (ADP-Glo kinase assay)
- Type: biochemical
- conditions-used: CDK9 enzyme activity; compound 100 nM; average of two independent repeats; read-out: Inhibition rate at different concentrations (%) 100 nM
Please don't drop the unit; write it after the number.

INSERT INTO results (compound, target_or_test_system, readout, value_observed) VALUES
  ('CC(=O)NC1CCC(NC(=O)Nc2cc(-c3cnn4c3COCC4)c(Cl)cn2)CC1 (stereo not drawn) [Example 82]', 'T1, Recombinant human CDK9/cyclin T1 (Homo sapiens, UniProt P50750)', 'inhibition at 0.1 µM', '79.2%'),
  ('CC1(C)Cc2c(-c3cc(NC(=O)NC4CCC(NCCOC(F)(F)F)CC4)ncc3Cl)cnn2C1 (stereo not drawn) [Example 57]', 'T1, Recombinant human CDK9/cyclin T1 (Homo sapiens, UniProt P50750)', 'inhibition at 0.1 µM', '86.5%'),
  ('COc1cc(F)ccc1-c1cc(NC(=O)NC2CCC(NC3CC3)CC2)ncc1Cl (stereo not drawn) [Example 24]', 'T1, Recombinant human CDK9/cyclin T1 (Homo sapiens, UniProt P50750)', 'inhibition at 0.1 µM', '73.1%'),
  ('COc1cc(F)ccc1-c1cc(NC(=O)NC2CCC(NC(C)=O)CC2)ncc1C#N (stereo not drawn) [Example 32]', 'T1, Recombinant human CDK9/cyclin T1 (Homo sapiens, UniProt P50750)', 'inhibition at 0.1 µM', '59.8%');

Fill in inhibition at 0.1 µM for each of the 2 compounds listed.
1. COc1cc(F)ccc1-c1cc(NC(=O)NC2CCC(NC3CCOC3)CC2)ncc1Cl (stereo not drawn) [Example 25]
2. COc1cc(F)ccc1-c1cc(NC(=O)NC2CCC(NC(=O)CN(C)C)CC2)ncc1Cl (stereo not drawn) [Example 28]

1: 61.2%; 2: 84.3%

For every listed record, write down its inhibition at 0.1 µM.
1. NC1CCC(NC(=O)Nc2cc(-c3ccc(F)cc3OC(F)(F)F)ccn2)CC1 (stereo not drawn) [Example 12]
2. CN(C)CCNC1CCC(NC(=O)Nc2cc(-c3cnn4c3CC(C)(C)C4)c(Cl)cn2)CC1 (stereo not drawn) [Example 56]
3. COc1cc(-c2ccnc(NC(=O)NC3CCC(N)CC3)c2)ccc1F (stereo not drawn) [Example 6]

69.1%
95.2%
74.1%

Hi! Can you tell me inhibition at 0.1 µM for each of these compounds?
1. COc1cc(F)ccc1-c1ccnc(NC(=O)NC2CCCNCC2)c1 (stereo not drawn) [Example 37]
2. CC(=O)NC1CCC(NC(=O)Nc2cc(-c3cnn(C)c3C)c(Cl)cn2)CC1 (stereo not drawn) [Example 43]
3. CC(=O)NC1CCC(NC(=O)Nc2cc(-c3cnn4c3CC(C)(C)C4)c(C3CC3)cn2)CC1 (stereo not drawn) [Example 53]
4. COCCNC1CCC(NC(=O)Nc2cc(-c3ccc(F)cc3Cl)ccn2)CC1 (stereo not drawn) [Example 11]
5. CC1(C)Cc2c(-c3cc(NC(=O)NC4CCC(NCCO)CC4)ncc3Cl)cnn2C1 (stereo not drawn) [Example 62]

1: 60%; 2: 87.3%; 3: 59.8%; 4: 93.4%; 5: 90.9%

Kindly give each listed record's inhibition at 0.1 µM.
1. COc1cc(F)ccc1-c1cc(NC(=O)NC2CCC(NCCO)CC2)ncc1Cl (stereo not drawn) [Example 20]
2. COCC[N+](C)(C)C1CCC(NC(=O)Nc2cc(-c3cnn4c3CC(C)(C)C4)c(Cl)cn2)CC1 (stereo not drawn) [Example 91]
3. CC(=O)NC1CCC(NC(=O)Nc2cc(-c3cnn4c3CC(C)(C)C4)c(C)cn2)CC1 (stereo not drawn) [Example 52]
4. COc1cc(F)ccc1-c1cc(NC(=O)NC2CCC(NC(C)C)CC2)ncc1Cl (stereo not drawn) [Example 23]
5. [2H]C([2H])([2H])OCCNC1CCC(NC(=O)Nc2cc(-c3cnn4c3CC(C)(C)C4)c(Cl)cn2)CC1 (stereo not drawn) [Example 58]
6. CC1(C)Cc2c(-c3cc(NC(=O)NC4CCCC(NC(=O)OC(C)(C)C)C4)ncc3Cl)cnn2C1 (stereo not drawn) [Example 76]
7. CC(=O)NC1CCC(NC(=O)Nc2cc(-c3cnc4n3CC(C)(C)C4)c(Cl)cn2)CC1 (stereo not drawn) [Example 86]

1: 88.3%; 2: 88%; 3: 78.5%; 4: 87.4%; 5: 98.2%; 6: 91%; 7: 88.3%
